# system: PB2 (Influenza A virus, UniProt P03428)
# Sequence (P03428 whole entry, looked up): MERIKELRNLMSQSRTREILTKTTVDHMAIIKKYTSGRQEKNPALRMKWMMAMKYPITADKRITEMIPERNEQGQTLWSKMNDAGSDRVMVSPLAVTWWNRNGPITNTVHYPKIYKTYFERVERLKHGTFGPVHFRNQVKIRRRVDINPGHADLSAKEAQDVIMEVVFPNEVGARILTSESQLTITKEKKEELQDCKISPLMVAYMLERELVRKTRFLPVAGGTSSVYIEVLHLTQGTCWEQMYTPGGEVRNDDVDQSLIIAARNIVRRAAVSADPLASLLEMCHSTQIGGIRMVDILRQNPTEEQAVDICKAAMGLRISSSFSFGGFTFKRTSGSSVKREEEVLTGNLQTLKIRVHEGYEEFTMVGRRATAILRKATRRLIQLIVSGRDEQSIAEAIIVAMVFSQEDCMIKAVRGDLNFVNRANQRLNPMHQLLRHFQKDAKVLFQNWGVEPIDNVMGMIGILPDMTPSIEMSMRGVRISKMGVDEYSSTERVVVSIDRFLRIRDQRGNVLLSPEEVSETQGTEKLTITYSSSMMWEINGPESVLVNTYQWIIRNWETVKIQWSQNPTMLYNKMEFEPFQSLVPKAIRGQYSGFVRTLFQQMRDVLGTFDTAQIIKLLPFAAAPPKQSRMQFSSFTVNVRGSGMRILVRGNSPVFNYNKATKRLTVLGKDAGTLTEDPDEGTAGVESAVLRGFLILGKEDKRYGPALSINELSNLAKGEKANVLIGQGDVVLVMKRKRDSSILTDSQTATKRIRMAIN
# method: biochemical
pEC50: −log10 of the molar value.
Exercise: state measured pEC50 for each of the molecules provided.

State the recorded pEC50 for this entry: CC(C)NCCNC(=O)OCc1ccnc(C(=O)N[C@H]2CCC[C@@H](Nc3nc(-c4c[nH]c5ncc(F)cc45)ncc3F)C2)c1
4.60 to 5.30

State the recorded pEC50 for this entry: O=C(NCc1ccc(Oc2ccccc2)cc1)OCc1ccnc(C(=O)N[C@H]2CCC[C@@H](Nc3nc(-c4c[nH]c5ncc(F)cc45)ncc3F)C2)c1
< 4.00

State the recorded pEC50 for this entry: O=C(N[C@@H]1CCC[C@H](Nc2nc(-c3c[nH]c4ncc(F)cc34)ncc2F)C1)c1cncc(-c2ccccc2)c1
< 4.00

Where do the numbers come from? From patent US12357631B2.
